B1: DVL3 (parent)
chain: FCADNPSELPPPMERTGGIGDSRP

# Variants of: B1
# EXPERIMENT NOTES: protein stability index of a GFP-peptide fusion (GPS, HEK-293T) (PSI 1-6); higher = more stable;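 also: lentivirally expressed fusions sorted by FACS into six bins by GFP to DsRed ratio, PSI derived from sequencing read proportions per bin multiplied by bin number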
# CONDITION DESCRIPTION: c terminus: a fixed tail appended
Measured protein stability index values are reported for all entries that follow.
Answer as a number with no unit attached.

Use the examples below as a reference point.
1) E8S | 4.63
2) F1K | 4.86
3) N5E | 4.8
4) T16L | 3.8
5) C2M | 4.71
6) D21K | 4.21

# input I have this variant here, "E8K" , and I need its recorded protein stability index.
# output 3.47
